- target: human HER2/ErbB2 (Homo sapiens, UniProt P04626)
- Sequence (P04626 676-1255): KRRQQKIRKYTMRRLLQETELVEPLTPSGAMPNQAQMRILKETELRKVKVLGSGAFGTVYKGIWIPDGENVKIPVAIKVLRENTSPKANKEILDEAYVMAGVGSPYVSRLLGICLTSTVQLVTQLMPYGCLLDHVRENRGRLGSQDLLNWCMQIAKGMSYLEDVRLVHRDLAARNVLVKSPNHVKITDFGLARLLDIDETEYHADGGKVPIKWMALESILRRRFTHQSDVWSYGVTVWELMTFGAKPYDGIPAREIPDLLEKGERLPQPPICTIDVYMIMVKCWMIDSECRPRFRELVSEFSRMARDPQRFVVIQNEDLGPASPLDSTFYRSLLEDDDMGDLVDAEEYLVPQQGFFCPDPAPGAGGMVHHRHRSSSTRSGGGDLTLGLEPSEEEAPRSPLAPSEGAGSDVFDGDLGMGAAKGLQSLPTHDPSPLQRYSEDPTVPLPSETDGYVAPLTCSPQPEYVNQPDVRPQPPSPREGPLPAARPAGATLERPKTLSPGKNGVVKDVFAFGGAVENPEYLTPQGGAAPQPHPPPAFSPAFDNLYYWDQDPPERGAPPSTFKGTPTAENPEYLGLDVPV
- protocol.notes: HTScan Receptor Kinase Assay, HER2/ErbB2;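 also: europium time-resolved fluorescence detection of anti-phosphotyrosine antibody binding to biotinylated FLT3 (Tyr589) peptide phosphorylated by the kinase, 30 min reaction at room temperature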
assay.endpoint: IC50

stdin: // Input: C[C@@H](Nc1ncnc2[nH]c(-c3ccc(NCc4ccc(C(=O)NO)cc4)cc3)cc12)c1ccccc1 . Output its IC50 only.
stdout: 100 to 1000 nM

stdin: Look up and report measured IC50 for this entry: C[C@@H](Nc1ncnc2[nH]c(-c3ccc(CN4CCC(NCCCCCCCC(=O)NO)CC4)cc3)cc12)c1ccccc1
stdout: < 100 nM

stdin: Given C[C@@H](Nc1ncnc2c1cc(-c1ccc(C(=O)NCCNCCCCCCC(=O)NO)cc1)n2C)c1ccccc1 , respond with its IC50.
stdout: 100 to 1000 nM

stdin: # return recorded IC50 for entry C[C@@H](Nc1ncnc2[nH]c(-c3ccc(NC(=O)CCCCC(=O)NO)cc3)cc12)c1ccccc1
stdout: 100 to 1000 nM

stdin: Consider the molecule C[C@@H](Nc1ncnc2[nH]c(-c3ccc(CN4CCN(CCCCCC(=O)NO)CC4)cc3)cc12)c1ccc(F)cc1 . State its measured IC50.
stdout: 100 to 1000 nM

stdin: Hello, please tell me recorded IC50 for this one: C[C@@H](Nc1ncnc2[nH]c(-c3ccc(NCc4ccc(/C=C/C(=O)NO)cc4)cc3)cc12)c1ccccc1
stdout: 1000 to 10000 nM

New cases:
stdin: Give me measured IC50, please, for this molecule: C[C@@H](Nc1ncnc2[nH]c(-c3ccc(CNCc4ccc(/C=C/C(=O)NO)cc4)cc3)cc12)c1ccccc1
stdout: > 10000 nM

stdin: Note IC50 for the molecule shown: C[C@@H](Nc1ncnc2[nH]c(-c3ccc(NC(=O)CCC(=O)NO)cc3)cc12)c1ccccc1
stdout: 100 to 1000 nM

stdin: Give the reported value of IC50 for this record: C[C@@H](Nc1ncnc2[nH]c(-c3ccc(C(=O)NCCNCCCCCC(=O)NO)cc3)cc12)c1ccccc1
stdout: 100 to 1000 nM

The measured values listed here are drawn from patent US20080161320A1.
